Recorded values, source paper PMC5289826.

tested-system: recombinant human 11β-HSD1 (Homo sapiens)
Construct: expressed in transfected cells
experiment-summary: 11β-HSD1 enzyme activity in cell lysates (cortisone to cortisol, radiolabeled tracer, TLC)
Format: biochemical
parameter-measured: IC50 (nM)

> print(dat)
                                   compound                             tested.system  number
1  Cc1ccc(-c2cccc(C(=O)N3CCC(C)CC3)c2)cn1 [2b]  recombinant human 11β-HSD1 (Homo sapiens)    42.2
2  Cc1ccc(-c2cccc(C(=O)N3CCC(C)CC3)c2)cc1F [3b]  recombinant human 11β-HSD1 (Homo sapiens)    53.8

[I] Cc1ccc(-c2cccc(C(=O)N3CCCCCC3)c2)cc1 [1e]
[II] O=C(c1cccc(-c2ccccc2)c1)N1CCCCCC1 [12e]
Q. Could you determine which record has the numerically smaller IC50? Candidates: I and II The response must carry the label of the picked entry.
A. II

[I] Cc1ccc(-c2cccc(C(=O)N3CCCCCC3)c2)cc1F [3e]
[II] CC1CCN(C(=O)c2cccc(-c3ccccc3Cl)c2)CC1 [6b]
Q. I'm curious whether I or II has the smaller IC50 number. Which is it? Output the label that corresponds to your choice.
A. I
(I: 34.5 nM, II: 62.2 nM)

[P] Cc1ccc(-c2cccc(C(=O)N3CCCC(C)(C)C3)c2)cc1F [3a]
[Q] Cc1ccc(-c2cccc(C(=O)N3CCOC(C)(C)C3)c2)cc1F [3c]
Q. From the items above, decide which of P and Q has the lower IC50 reading. API: response body contains the label of the selected item.
A. Q
(Q: 27.9 nM, P: 47.2 nM)

---

tested-system: recombinant human 11β-HSD1 (Homo sapiens)
Construct: expressed in transfected cells
experiment-summary: 11β-HSD1 enzyme activity in cell lysates (cortisone to cortisol, radiolabeled tracer, TLC)
Format: biochemical
recorded-conditions: 1 μM compound; lysates of HEK-293 cells; 200 nM cortisone; mean of three experiments
Measured 11β-HSD1 Residual activity, % of control at 1 μM accompanies every entry in the list below.

Field: example entries. Status: answers known.
> print(dat)
                                   compound           result
1  O=C(c1cccc(-c2ccc(Cl)cc2)c1)N1CCCCCC1 [5e]   2 % of control
2  CC1CCN(C(=O)c2cccc(-c3cccc(C(N)=O)c3)c2)CC1 [10b]  34 % of control
3  Cc1ccc(-c2cccc(C(=O)N3CCCC(C)(C)C3)c2)cc1F [3a]   3 % of control
4  Cc1ccc(-c2cccc(C(=O)N3CCC(C)CC3)c2)cn1 [2b]   5 % of control
5  Cc1ccc(-c2cccc(C(=O)N3CCC(C)CC3)c2)cc1F [3b]   1 % of control

Q. Returns the measured 11β-HSD1 Residual activity, % of control at 1 μM for the input compound. Input: Cc1ccc(-c2cccc(C(=O)N3CC(C)OC(C)C3)c2)cc1F (centres unmarked) [3d]
A. 4 % of control

Q. Any idea what 11β-HSD1 Residual activity, % of control at 1 μM was measured for CC1CCN(C(=O)c2cccc(-c3cccc(O)c3)c2)CC1 [8b] ?
A. 8 % of control

Q. Look up 11β-HSD1 Residual activity, % of control at 1 μM for this compound: CC1CCN(C(=O)c2cccc(-c3ccc(O)cc3)c2)CC1 [7b]
A. 5 % of control

Q. What does the data say about its 11β-HSD1 Residual activity, % of control at 1 μM? Entry: Cc1ccc(-c2cccc(C(=O)N3CCCCCC3)c2)cc1F [3e]
A. 1 % of control

Q. Quick check: 11β-HSD1 Residual activity, % of control at 1 μM of NC(=O)[C@@H]1CCCN1C(=O)c1cccc(-c2ccccc2Cl)c1 [6f] ?
A. > 90 % of control

Q. For the compound shown here, Cc1ccc(-c2cccc(C(=O)N3CCC(C)CC3)c2)cc1 [1b] , give the reported 11β-HSD1 Residual activity, % of control at 1 μM.
A. 1 % of control

---

tested-system: recombinant human 11β-HSD1 (Homo sapiens, UniProt P28845)
Construct: expressed in transfected cells
Sequence (P28845 whole entry): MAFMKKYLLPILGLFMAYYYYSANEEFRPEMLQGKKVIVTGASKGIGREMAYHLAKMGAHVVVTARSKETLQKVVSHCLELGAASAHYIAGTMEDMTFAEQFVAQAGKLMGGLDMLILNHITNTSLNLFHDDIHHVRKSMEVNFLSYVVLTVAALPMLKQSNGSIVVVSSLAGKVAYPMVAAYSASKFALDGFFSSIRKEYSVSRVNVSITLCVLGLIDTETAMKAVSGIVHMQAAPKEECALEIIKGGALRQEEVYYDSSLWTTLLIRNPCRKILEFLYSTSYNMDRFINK
experiment-summary: 11β-HSD1 enzyme activity in cell lysates (cortisone to cortisol, radiolabeled tracer, TLC)
Type: biochemical
recorded-conditions: cell lysates; SAR comparison within the series
parameter-measured: activity towards 11β-HSD1, effect of substituent (in words)

> print(dat)
                                   compound                             tested.system          result
1  Cc1ccc(-c2cccc(C(=O)N3CCCCCC3)c2)cc1C [11e]  recombinant human 11β-HSD1 (Homo sapiens, UniProt P28845)  lower activity
2    CC1CCN(C(=O)c2cccc(-c3cccc(O)c3)c2)CC1  recombinant human 11β-HSD1 (Homo sapiens, UniProt P28845)  lower activity

---

tested-system: recombinant human 11β-HSD1 (Homo sapiens, UniProt P28845)
Construct: expressed in transfected cells
experiment-summary: 11β-HSD1 enzyme activity in cell lysates (cortisone to cortisol, radiolabeled tracer, TLC)
Assay type: biochemical
recorded-conditions: 100 nM compound; lysates of HEK-293 cells; 200 nM cortisone; mean of three experiments
As shown below, each of these compounds has a reported 11β-HSD1 Residual activity, % of control at 100 nM value.

Sample records with 11β-HSD1 Residual activity, % of control at 100 nM:
> print(dat)
                                   compound           result
1  CC1CCN(C(=O)c2cccc(-c3ccc(F)cc3)c2)CC1 [4b]  43 % of control
2  O=C(c1cccc(-c2ccc(O)cc2)c1)N1CCCCCC1 [7e]  28 % of control
3  Cc1ccc(-c2cccc(C(=O)N3CC(C)OC(C)C3)c2)cc1F (centres unmarked) [3d]  44 % of control

Q. Recorded 11β-HSD1 Residual activity, % of control at 100 nM for Cc1ccc(-c2cccc(C(=O)N3CCCCCC3)c2)cc1 [1e] , please?
A. 17 % of control

Q. Using the record for Cc1ccc(-c2cccc(C(=O)N3CCCCCC3)c2)cc1C [11e] , report its 11β-HSD1 Residual activity, % of control at 100 nM.
A. 69 % of control

Q. Tell me the measured 11β-HSD1 Residual activity, % of control at 100 nM of Cc1ccc(-c2cccc(C(=O)N3CCOC(C)(C)C3)c2)cc1F [3c] , please.
A. 14 % of control

Q. Reported 11β-HSD1 Residual activity, % of control at 100 nM, compound CC1CCN(C(=O)c2cccc(-c3cccc(O)c3)c2)CC1 [8b] : ____
A. 70 % of control

Q. What does the record list as 11β-HSD1 Residual activity, % of control at 100 nM for Cc1ccc(-c2cccc(C(=O)N3CCCCCC3)c2)cc1F [3e] ?
A. 19 % of control

---

tested-system: recombinant human 11β-HSD1 (Homo sapiens, UniProt P28845)
experiment-summary: 11β-HSD1 enzyme activity in cell lysates (cortisone to cortisol, radiolabeled tracer, TLC)
Experimental: Human embryonic kidney (HEK-293) cells either stably expressing human 11β-HSD1 and H6PDH (HHH7 clone, [38]) or 11β-HSD2 (AT8 clone, [39]), or transiently expressing human 17β-HSD1 or 17β-HSD2, were cultivated in Dulbecco’s modified Eagle medium (DMEM) containing 4.5 g/L glucose, 10% fetal bovine serum, 100 U/mL penicillin, 0.1 mg/mL streptomycin, 1 × MEM nonessential amino acids, and 10 mM HEPES buffer, pH 7.4. […]
parameter-measured: IC50 (nM)

> print(dat)
                             query.smiles                             tested.system  parameter.measured  number
1  Cc1ccc(-c2cccc(C(=O)N3CCC(C)CC3)c2)cc1  recombinant human 11β-HSD1 (Homo sapiens, UniProt P28845)                IC50    47.7
2  CC1CCN(C(=O)c2cccc(-c3ccc(O)cc3)c2)CC1  recombinant human 11β-HSD1 (Homo sapiens, UniProt P28845)                IC50    40.4
3    Cc1ccc(-c2cccc(C(=O)N3CCCCCC3)c2)cn1  recombinant human 11β-HSD1 (Homo sapiens, UniProt P28845)                IC50      46

---

This listing pairs compounds with measured 11β-HSD1 Residual activity, % of control at 1 μM.
tested-system: recombinant human 11β-HSD1 (Homo sapiens)
Construct: expressed in transfected cells
experiment-summary: 11β-HSD1 enzyme activity in cell lysates (cortisone to cortisol, radiolabeled tracer, TLC)
Format: biochemical
recorded-conditions: 1 μM compound; lysates of HEK-293 cells; 200 nM cortisone; mean of three experiments

Consider the worked cases shown below.
> print(dat)
                               query.smiles           result
1   CC1CCN(C(=O)c2cccc(-c3ccc(Cl)cc3)c2)CC1   3 % of control
2  CC1CCN(C(=O)c2cccc(-c3ccc(C(N)=O)cc3)c2)CC1  19 % of control

Q. Query 11β-HSD1 Residual activity, % of control at 1 μM on recombinant human 11β-HSD1 (Homo sapiens) for Cc1ccc(-c2cccc(C(=O)N3CCC[C@H]3C(N)=O)c2)cc1F
A. > 90 % of control

Q. What measured 11β-HSD1 Residual activity, % of control at 1 μM is associated with Cc1ccc(-c2cccc(C(=O)N3CCOC(C)(C)C3)c2)cc1F on recombinant human 11β-HSD1 (Homo sapiens)?
A. 1 % of control

Q. 11β-HSD1 Residual activity, % of control at 1 μM of CC1CCN(C(=O)c2cccc(-c3ccc(F)cc3)c2)CC1 on recombinant human 11β-HSD1 (Homo sapiens)?
A. 4 % of control

Q. I'm curious: which 11β-HSD1 Residual activity, % of control at 1 μM was measured for CC1CCN(C(=O)c2cccc(-c3ccccc3Cl)c2)CC1 tested on recombinant human 11β-HSD1 (Homo sapiens)?
A. 4 % of control
